experiment: Terminal half life in ICR mouse peritonitis model infected with methicillin resistant Staphylococcus aureus ATCC 27660 at 10 mg/kg, iv administered as single dose by UPLC analysis; assay type: ADME, organism-based; settings: ICR, in vivo, read-out: beta t1/2
Measurement kind: half-life

(Q) Consider the compound N#Cc1ccc(/C=C/c2nc3ccccc3c(=O)n2-c2cccc(C(=O)O)c2)cc1 . State its measured half-life.
(A) ≥ 20 h

---

test: Cmax in ICR mouse peritonitis model infected with methicillin resistant Staphylococcus aureus ATCC 27660 at 10 mg/kg, po administered as single dose through gavage measured at 1 hr post dose by UPLC analysis; type: ADME, organism-based; parameters: dose 10 mg/kg, route oral; details: in vivo
Measurement kind: Cmax (ng/mL)
Expressed in ng/mL, but write only the number.

(Q) Consider the compound N#Cc1ccc(/C=C/c2nc3ccccc3c(=O)n2-c2cccc(C(=O)O)c2)cc1 . State its measured Cmax.
(A) 1300
